# collection of MIC values tested on Escherichia coli NIHJ
Unit µg/mL implied. Number only.

Q: Request the reported MIC associated with COC1(NC(=O)C(NC(=O)c2cnc3cccnc3c2O)c2cccs2)C(=O)N2C(C(=O)O)=C(COC(N)=O)CSC21 (stereo not shown) [Example 48]
A: 3.13

Q: Request the reported MIC associated with CO[C@@]1(NC(=O)C(NC(=O)c2cnc3nc(N4CCNCC4)ncc3c2O)c2ccc(O)cc2)C(=O)N2C(C(=O)O)=C(COC(N)=O)CS[C@@H]21 (stereo partly shown) [Example 25]
A: 12.5

Q: Request the reported MIC associated with COC1(NC(=O)C(NC(=O)c2nnc(S)nc2O)c2ccccc2)C(=O)N2C(C(=O)O)=C(CSc3nnc(C)s3)CSC21 (stereo not shown) [Example 53]
A: 25

Q: Request the reported MIC associated with COc1cnc2c(O)c(C(=O)NC(C(=O)N[C@]3(OC)C(=O)N4C(C(=O)O)=C(CSc5nnnn5C)CS[C@@H]43)c3ccc(O)cc3)cnc2n1 (stereo partly shown) [Example 17]
A: 3.13

Q: Request the reported MIC associated with CO[C@@]1(NC(=O)C(NC(=O)c2nccnc2O)c2ccc(O)cc2)C(=O)N2C(C(=O)O)=C(CSc3nnc(C)s3)CS[C@@H]21 (stereo partly shown) [Example 27]
A: 25

Q: Request the reported MIC associated with COC1(NC(=O)C(NC(=O)c2nnc(O)nc2O)c2ccc(O)cc2)C(=O)N2C(C(=O)O)=C(COC(N)=O)CSC21 (stereo not shown) [Example 52]
A: 25

Q: Request the reported MIC associated with CO[C@@]1(NC(=O)C(NC(=O)c2cncnc2O)c2ccc(O)cc2)C(=O)N2C(C(=O)O)=C(CSc3nnnn3C)CS[C@@H]21 (stereo partly shown) [Example 10]
A: 12.5

Q: Request the reported MIC associated with COC1(NC(=O)C(NC(=O)c2cc3ncccc3nc2O)c2ccc(O)cc2)C(=O)N2C(C(=O)O)=C(CSc3nnnn3C)CSC21 (stereo not shown) [Example 28]
A: 1.56

Q: Request the reported MIC associated with CO[C@@]1(NC(=O)C(NC(=O)c2cnccc2O)c2ccccc2)C(=O)N2C(C(=O)O)=C(COC(C)=O)CS[C@@H]21 (stereo partly shown) [Example 8]
A: 12.5

Q: Request the reported MIC associated with COC1(NC(=O)C(NC(=O)c2cnc3scnc3c2O)c2ccc(O)cc2)C(=O)N2C(C(=O)O)=C(COC(N)=O)CSC21 (stereo not shown) [Example 30]
A: 6.25

Q: Request the reported MIC associated with COC1(NC(=O)C(NC(=O)c2cnc3ccncc3c2O)c2ccc(O)cc2)C(=O)N2C(C(=O)O)=C(CSc3nnnn3C)CSC21 (stereo not shown) [Example 38]
A: 12.5

Q: Request the reported MIC associated with COC1(NC(=O)C(NC(=O)c2cnc3sccc3c2O)c2ccc(O)cc2)C(=O)N2C(C(=O)O)=C(CSc3nnnn3C)CSC21 (stereo not shown) [Example 29]
A: 12.5

Q: Request the reported MIC associated with COC1(NC(=O)C(NC(=O)c2cnc3cccnc3c2O)C2=CCC=CC2)C(=O)N2C(C(=O)O)=C(CSc3nnc(C)s3)CSC21 (stereo not shown) [Example 32]
A: 3.13

----------
System: Pseudomonas aeruginosa IID 5142
Assay: antimicrobial activity, minimum inhibitory concentration, Pseudomonas aeruginosa IID 5142
Assay type: cell-based
Conditions: IID5142
reported_property: MIC (µg/mL)
Unit µg/mL implied. Number only.

Q: Request the reported MIC associated with CO[C@@]1(NC(=O)C(NC(=O)c2cnc3nc(SC)ncc3c2O)c2ccc(O)cc2)C(=O)N2C(C(=O)O)=C(CSc3ccc(O)nn3)CS[C@@H]21 (stereo partly drawn)
A: 3.13

Q: Request the reported MIC associated with COC1(NC(=O)C(NC(=O)c2cnc3cccnc3c2O)c2cccs2)C(=O)N2C(C(=O)O)=C(COC(N)=O)CSC21 (stereo not drawn)
A: 3.13

Q: Request the reported MIC associated with `CO[C@@]1(NC(=O)[C@H](NC(=O)c2cnc3cccnc3c2O)c2ccccc2)C(=O)N2C(C(=O)O)=C(COC(C)=O)CS[C@@H]21`
A: 1.56

Q: Request the reported MIC associated with COC1(NC(=O)C(NC(=O)c2cnc3cccnc3c2O)C2=CCCCC2)C(=O)N2C(C(=O)O)=C(COC(C)=O)CSC21 (stereo not drawn)
A: 3.13

Q: Request the reported MIC associated with COC1(NC(=O)C(NC(=O)c2cnc3cccnc3c2O)c2cc(Cl)c(O)c(Cl)c2)C(=O)N2C(C(=O)O)=C(CSc3nnc(C)s3)CSC21 (stereo not drawn)
A: 3.13

Q: Request the reported MIC associated with CO[C@@]1(NC(=O)C(NC(=O)c2cnc3ccc(SC)nc3c2O)c2ccc(O)c(Cl)c2)C(=O)N2C(C(=O)O)=C(CSc3nnc(CO)s3)CS[C@@H]21 (stereo partly drawn)
A: 3.13

These measurements were taken from patent US4226863A.
